Experiment: Acute toxicity test on rat upon oral administration
Conditions: in vivo, 500 mg/kg, oral, single dose, SD rats, read-out: lethal dose (LD50)
Assay Readout: LD50

                                   compound  assay_readout  test_result
0  COC(=O)C1c2c(oc3cc(CO)cc(O)c3c2=O)C=CC1O (stereo not shown) [ACRL-B4]           LD50  ≥ 500 mg/kg
